Test system: Trichophyton rubrum
Test protocol: Antifungal activity in vitro, resazurin growth inhibition: Trichophyton rubrum (B68183)
Format: cell-based
Measured endpoint: Inf. C: Trichophyton rubrum B68183, pIC50

Items follow; give Inf. C: Trichophyton rubrum B68183, pIC50 for each.
1. Cc1ncc(C2=NCc3c(Cl)cccc3-n3cccc32)cn1
2. Br.CCn1ccc(C2NCc3c(Cl)cccc3-n3cccc32)n1 (racemic)
3. Clc1cccc2c1CN=C(c1ccc3c(Cl)coc3c1)c1cccn1-2

-- reply
<4.19
<4.19
<4.19

----------
System: Candida parapsilosis
Test protocol: Antifungal activity in vitro, resazurin growth inhibition: Candida parapsilosis (B66126)
Assay type: cell-based
Record form. Attribute: Inf. D: Candida parapsilosis B66126, pIC50. Fill in for each entry.
Numbers only.

Reference set, count: 3
{"columns": ["Smiles str", "Measurement target", "Result number"],
 "data": [
  ["Clc1ccc2c(c1)-n1cccc1C(c1ccc3sccc3c1)=NC2", "Candida parapsilosis", 5.71],
  ["Cc1cccc2c1-n1cccc1C(c1cc3ccccc3s1)=NC2", "Candida parapsilosis", 4.97],
  ["CC(=O)c1ccc(C2=NCc3c(F)cc(F)cc3-n3cccc32)cn1", "Candida parapsilosis", 4.59]
]}

Shifting focus to the molecule that follows.
-- ask State Inf. D: Candida parapsilosis B66126, pIC50 (Candida parapsilosis) of Cc1ccc2cc(C3=NCc4c(C)cccc4-n4cccc43)oc2c1 .
-- reply 4.34
